TARGET DESC: VDR:SRC-1 (Homo sapiens)
ASSAY METHOD TEXT: Mammalian 2-hybrid assay, recruitment of coactivator SRC-1 by VDR, Cos7 cells
MEASUREMENT SETUP: agonists; -RXR (empty pSG5); percentage of vitamin D3; conc. in Fig 5: ergocalciferol 60, lithocholic acid 50, calcipotriol 0.05, ethylphenol compound 40, 9 aminoacridine 50, tamoxifen citrate 20 μM
ENDPOINT LABEL: % Induction, pMSRC-1NR + EpSG5 (%)
Answer format: numeric, % implied, no suffix.

COMPOUND	% Induction, pMSRC-1NR + EpSG5 (%)
Cc1cc(Cc2cc(C)cc(C(C)(C)C)c2O)c(O)c(C(C)(C)C)c1	8.2
Cl.Nc1c2ccccc2nc2ccccc12 [9 Aminoacridine monohydrochloride]	14.4
Nc1nc(N)c2nc(-c3ccccc3)c(N)nc2n1 [Triamterene, reference compound]	0.9
CCc1cc(Cc2cc(CC)cc(C(C)(C)C)c2O)c(O)c(C(C)(C)C)c1	7.2

Switching to the query record.
Identify measured % Induction, pMSRC-1NR + EpSG5 corresponding to C=C1/C(=C\C=C2/CCC[C@]3(C)[C@@H]([C@H](C)/C=C/[C@@H](O)C4CC4)CC[C@@H]23)C[C@@H](O)C[C@@H]1O [Calcipotriol, reference compound]
142.9

---

TARGET DESC: UniProt P11473
ASSAY METHOD TEXT: Transient transactivation assay (CYP24-Luc), antagonist mode with 3 nM 1,25D3, HEK293T cells
Format: cell-based
ENDPOINT LABEL: Derived Efficacy (fold inhibition)
Give me the value, and tack the unit on after it.

Give Derived Efficacy (fold inhibition); test system UniProt P11473; molecule O=C1C(Cl)=C(Cl)C(=O)c2ccccc21 [Dichlone]
86.9798 fold inhibition

Give Derived Efficacy (fold inhibition); test system UniProt P11473; molecule COc1cccc2c1cc([N+](=O)[O-])c1c(C(=O)O)cc3c(c12)OCO3 [Aristolochic acid]
76.1807 fold inhibition

Give Derived Efficacy (fold inhibition); test system UniProt P11473; molecule [OH-].c1cc[c]([Sn+]([c]2ccccc2)[c]2ccccc2)cc1 [Triphenyltin hydroxide]
89.3748 fold inhibition

Give Derived Efficacy (fold inhibition); test system UniProt P11473; molecule C[C@@H]1O[C@@H](O[C@@H]2C=C3CC[C@@H]4[C@H](CC[C@]5(C)[C@@H](c6ccc(=O)oc6)CC[C@]45O)[C@@]3(C)CC2)[C@H](O)[C@H](O)[C@H]1O [Proscillaridin, reference compound]
14.1669 fold inhibition

Give Derived Efficacy (fold inhibition); test system UniProt P11473; molecule CCC[CH2][Sn]([Cl])([Cl])[CH2]CCC [Dibutyltin dichloride]
20.5748 fold inhibition

Give Derived Efficacy (fold inhibition); test system UniProt P11473; molecule O=C(O)CCCc1ccc(N(CCCl)CCCl)cc1 [Chlorambucil, reference compound]
68.5251 fold inhibition

Give Derived Efficacy (fold inhibition); test system UniProt P11473; molecule [Cl][Cd][Cl] [Cadmium chloride]
44.5165 fold inhibition

Give Derived Efficacy (fold inhibition); test system UniProt P11473; molecule [Au+].[C-]#N.[C-]#N.[K+] [Potassium dicyanoaurate]
76.1807 fold inhibition

---

TARGET DESC: human VDR (Homo sapiens)
Sequence (P11473 1-427): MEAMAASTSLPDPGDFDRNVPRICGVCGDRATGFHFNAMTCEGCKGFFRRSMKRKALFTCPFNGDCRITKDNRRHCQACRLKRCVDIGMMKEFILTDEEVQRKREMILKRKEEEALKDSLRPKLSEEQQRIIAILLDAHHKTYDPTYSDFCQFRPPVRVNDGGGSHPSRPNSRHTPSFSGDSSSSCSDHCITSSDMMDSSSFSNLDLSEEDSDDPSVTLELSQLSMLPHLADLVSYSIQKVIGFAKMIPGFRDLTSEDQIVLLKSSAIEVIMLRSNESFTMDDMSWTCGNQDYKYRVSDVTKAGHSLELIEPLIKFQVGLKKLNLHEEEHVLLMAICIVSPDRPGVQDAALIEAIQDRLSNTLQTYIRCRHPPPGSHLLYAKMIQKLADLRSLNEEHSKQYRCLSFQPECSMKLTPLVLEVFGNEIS
ASSAY METHOD TEXT: Transient transactivation assay (CYP24-Luc), antagonist mode with 3 nM 1,25D3, HEK293T cells
Type: cell-based
MEASUREMENT SETUP: read-out: Derived IC 50 (Transient transactivation assay)
ENDPOINT LABEL: IC50 (nM)
Answer format: numeric, nM implied, no suffix.

Please review the entries below; each comes with its answer.
COMPOUND	NUMERIC RESULT
[OH-].c1cc[c]([Sn+]([c]2ccccc2)[c]2ccccc2)cc1 [Triphenyltin hydroxide]	45.4
[Cl][Cd][Cl] [Cadmium chloride]	380

Switching to the query record.
Identify measured IC50 corresponding to [Au+].[C-]#N.[C-]#N.[K+] [Potassium dicyanoaurate]
98.5

---

TARGET DESC: human VDR (Homo sapiens, UniProt P11473)
ASSAY METHOD TEXT: Transient transactivation assay (CYP24-Luc), agonist mode, HEK293T cells
MEASUREMENT SETUP: Derived AC50 (Transient transactivation assay), agonist mode; HEK293T cells; CYP24A1-Luc
Criterion: AC50 strictly under 3 µM. Met: true (1). Not met: false (0).

Some solved entries appear below for comparison.
MOLECULE	GROUP LABEL
COC(=O)c1nc(Cl)c(Cl)nc1N	true (1)
c1csc(-c2ccc(-c3cccs3)s2)c1	true (1)
CCc1cc(Cc2cc(CC)cc(C(C)(C)C)c2O)c(O)c(C(C)(C)C)c1	false (0)
Cl.Nc1c2ccccc2nc2ccccc12 [9 Aminoacridine monohydrochloride]	false (0)
O=S(=O)(O)c1ccc2ccc(S(=O)(=O)O)cc2c1	false (0)

Answer whether the molecule Cc1cc(=O)oc2cc(N(C)C)ccc12 has AC50 strictly less than 3 µM
true (1)

Answer whether the molecule Cc1cc(Cc2cc(C)cc(C(C)(C)C)c2O)c(O)c(C(C)(C)C)c1 has AC50 strictly less than 3 µM
false (0)

---

TARGET DESC: UniProt P11473
ASSAY METHOD TEXT: Transient transactivation assay (CYP24-Luc), agonist mode, HEK293T cells
MEASUREMENT SETUP: top asymptote of Hill or Gain-Loss model, maximum response
List of Derived Efficacy (fold induction) values.
Answer format: numeric, fold induction implied, no suffix.

Identify measured Derived Efficacy (fold induction) corresponding to COC(=O)c1nc(Cl)c(Cl)nc1N
44.5165

---

TARGET DESC: human VDR (Homo sapiens)
ASSAY METHOD TEXT: Transient transactivation assay (CYP24-Luc), agonist mode, HEK293T cells
MEASUREMENT SETUP: AC50 (μM), experimental AC50 as listed in Fig 4a; agonists
ENDPOINT LABEL: AC50

Please review the entries below; each comes with its answer.
COMPOUND	AC50
Cc1cc(Cc2cc(C)cc(C(C)(C)C)c2O)c(O)c(C(C)(C)C)c1	4.62 µM
Nc1nc(N)c2nc(-c3ccccc3)c(N)nc2n1 [Triamterene, reference compound]	12.2 µM

Identify measured AC50 corresponding to Cl.Nc1c2ccccc2nc2ccccc12 [9 Aminoacridine monohydrochloride]
10.9 µM

Identify measured AC50 corresponding to CCc1cc(Cc2cc(CC)cc(C(C)(C)C)c2O)c(O)c(C(C)(C)C)c1
35.4 µM

---

TARGET DESC: VDR:NCoR (Homo sapiens)
Sequence (P11473 1-427): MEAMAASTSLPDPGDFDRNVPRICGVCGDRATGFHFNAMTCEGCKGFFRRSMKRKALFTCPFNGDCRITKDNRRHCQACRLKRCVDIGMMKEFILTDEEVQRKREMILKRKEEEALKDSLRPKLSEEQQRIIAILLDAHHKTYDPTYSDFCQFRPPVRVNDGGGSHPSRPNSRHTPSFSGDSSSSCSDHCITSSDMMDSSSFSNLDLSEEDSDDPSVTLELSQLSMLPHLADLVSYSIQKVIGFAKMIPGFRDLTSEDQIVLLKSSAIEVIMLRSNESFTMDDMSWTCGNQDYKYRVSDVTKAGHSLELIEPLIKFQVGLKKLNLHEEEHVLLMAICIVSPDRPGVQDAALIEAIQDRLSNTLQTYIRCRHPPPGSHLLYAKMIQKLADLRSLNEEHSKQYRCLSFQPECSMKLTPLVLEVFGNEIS
ASSAY METHOD TEXT: Mammalian 2-hybrid assay, recruitment of corepressor NCoR by VDR, Cos7 cells
List of Fold Change (pMNCoR + EpSG5) values.

COMPOUND	Fold Change (pMNCoR + EpSG5)
[Cl][Cd][Cl] [Cadmium chloride]	1.1
O=C(O)CCCc1ccc(N(CCCl)CCCl)cc1 [Chlorambucil, reference compound]	0.9

Identify measured Fold Change (pMNCoR + EpSG5) corresponding to CN(C)C(=S)SSC(=S)N(C)C
1.7

Identify measured Fold Change (pMNCoR + EpSG5) corresponding to COc1cccc2c1cc([N+](=O)[O-])c1c(C(=O)O)cc3c(c12)OCO3
25.8

Identify measured Fold Change (pMNCoR + EpSG5) corresponding to C[C@@H]1O[C@@H](O[C@@H]2C=C3CC[C@@H]4[C@H](CC[C@]5(C)[C@@H](c6ccc(=O)oc6)CC[C@]45O)[C@@]3(C)CC2)[C@H](O)[C@H](O)[C@H]1O [Proscillaridin, reference compound]
2.8

Identify measured Fold Change (pMNCoR + EpSG5) corresponding to O=C1C(Cl)=C(Cl)C(=O)c2ccccc21
1.1
